IC50 tested on human PDE10A1 (Homo sapiens, UniProt Q9Y233): recorded values
Sequence (Q9Y233 1-779 isoform Q9Y233-1): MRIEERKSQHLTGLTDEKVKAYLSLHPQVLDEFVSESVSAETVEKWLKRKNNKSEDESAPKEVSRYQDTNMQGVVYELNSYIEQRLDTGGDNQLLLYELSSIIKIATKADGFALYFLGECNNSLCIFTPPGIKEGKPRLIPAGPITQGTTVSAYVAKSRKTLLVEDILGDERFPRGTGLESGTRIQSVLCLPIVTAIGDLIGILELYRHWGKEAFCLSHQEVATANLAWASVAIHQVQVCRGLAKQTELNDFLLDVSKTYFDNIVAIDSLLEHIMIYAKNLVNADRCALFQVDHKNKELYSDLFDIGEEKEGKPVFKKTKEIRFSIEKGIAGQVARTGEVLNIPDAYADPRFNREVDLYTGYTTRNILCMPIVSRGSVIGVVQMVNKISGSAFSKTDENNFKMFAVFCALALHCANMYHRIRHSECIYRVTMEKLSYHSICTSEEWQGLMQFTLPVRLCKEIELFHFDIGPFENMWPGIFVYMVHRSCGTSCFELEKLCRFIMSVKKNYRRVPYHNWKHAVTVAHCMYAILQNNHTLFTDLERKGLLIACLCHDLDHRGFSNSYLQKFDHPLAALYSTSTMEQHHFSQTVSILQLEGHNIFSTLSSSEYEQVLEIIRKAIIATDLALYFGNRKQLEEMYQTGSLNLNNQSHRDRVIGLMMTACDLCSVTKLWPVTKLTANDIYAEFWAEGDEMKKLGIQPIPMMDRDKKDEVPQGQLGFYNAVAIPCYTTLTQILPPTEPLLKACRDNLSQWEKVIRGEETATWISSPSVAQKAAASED
measured.property: IC50 (µM)

CCCn1c(=O)c2c(nc3n2CCCN3CCc2ccc(O)c(O)c2)n(CCC)c1=O; 31
CCCCn1c(NCCc2ccc(O)c(O)c2)nc2c1c(=O)n(C)c(=O)n2C [Compound 11e]; 3.77

1 = Cn1c(=O)c2c(nc(NCCc3ccc(O)c(O)c3)n2CCc2ccccc2)n(C)c1=O [Compound 11k]
2 = CCCn1c(NCCc2ccc(O)c(O)c2)nc2c1c(=O)n(C)c(=O)n2C [Compound 11c]
3 = Cn1c(=O)c2c(nc3n2CCCCN3CCc2ccc(O)c(O)c2)n(C)c1=O [Compound 20b]
Incoming: Thanks in advance: please rank these 3 entries by IC50, highest to lowest. Labels, ranked as asked.
Outgoing: 3, 2, 1
(3: 30.7 µM, 2: 3.45 µM, 1: 2.41 µM)

###

Measured melting point, listed per entry.

Guide cases for melting point, answers given:
CCn1c(NCCc2ccc(O)c(O)c2)nc2c1c(=O)n(C)c(=O)n2C [Compound 11b]; 225 to 226 °C
Cn1c(=O)c2c(nc(NCCc3ccc(O)c(O)c3)n2C)n(C)c1=O [Compound 11a]; 204 to 206 °C
CCCCCCn1c(NCCc2ccc(O)c(O)c2)nc2c1c(=O)n(C)c(=O)n2C [Compound 11i]; 216 to 218 °C
Cn1c(=O)c2c(nc(NCCc3ccc(O)c(O)c3)n2CCc2ccccc2)n(C)c1=O (hydrate or solvate) [Compound 11k]; 180 to 182 °C

Now let's try a different one.
Incoming: I am curious: what melting point value has been reported for Cn1c(=O)c2c(nc(NCCc3ccc(O)c(O)c3)n2Cc2ccccc2)n(C)c1=O (hydrate or solvate) [Compound 11j] ?
Outgoing: 214 to 216 °C

###

# study.system: human PDE4B1 (Homo sapiens)
# Construct: purchased BPS Biosciences
# Sequence (Q07343 whole entry): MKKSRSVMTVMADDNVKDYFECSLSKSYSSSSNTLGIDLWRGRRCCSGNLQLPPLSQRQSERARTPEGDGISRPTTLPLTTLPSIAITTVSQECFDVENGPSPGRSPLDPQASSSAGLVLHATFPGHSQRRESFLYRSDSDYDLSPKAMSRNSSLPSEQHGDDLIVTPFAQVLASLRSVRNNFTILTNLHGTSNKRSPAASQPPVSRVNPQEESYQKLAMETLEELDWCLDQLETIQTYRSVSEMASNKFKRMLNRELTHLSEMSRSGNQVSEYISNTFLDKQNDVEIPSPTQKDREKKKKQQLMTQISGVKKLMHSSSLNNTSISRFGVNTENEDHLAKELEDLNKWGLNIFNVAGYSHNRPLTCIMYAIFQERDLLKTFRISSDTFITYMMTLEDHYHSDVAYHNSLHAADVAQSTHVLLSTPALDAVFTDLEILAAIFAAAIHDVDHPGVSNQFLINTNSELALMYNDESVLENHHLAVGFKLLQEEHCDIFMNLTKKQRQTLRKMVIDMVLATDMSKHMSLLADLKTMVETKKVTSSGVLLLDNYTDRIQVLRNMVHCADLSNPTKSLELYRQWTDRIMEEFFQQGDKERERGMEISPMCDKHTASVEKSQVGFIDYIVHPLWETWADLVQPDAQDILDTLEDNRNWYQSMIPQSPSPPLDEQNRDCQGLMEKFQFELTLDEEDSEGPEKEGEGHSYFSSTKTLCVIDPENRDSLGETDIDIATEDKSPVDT
# method.summary: PDElight HTS cAMP phosphodiesterase assay, PDE4B1
# Assay type: biochemical
# condition.parameters: read-out: PDE 4B1 % Inhibition ± SEM at 10 µM
measured.property: inhibition at 10 µM (%)

Guide cases for inhibition at 10 µM, answers given:
CCCCCCn1c(NCCc2ccc(O)c(O)c2)nc2c1c(=O)n(C)c(=O)n2C [Compound 11i]; 42
CCCCn1c(=O)c2c(nc(NCCc3ccc(O)c(O)c3)n2CCC)n(CCCC)c1=O [Compound 13]; 28

P = Cn1c(=O)c2c(nc3n2CCCN3CCc2ccc(O)c(O)c2)n(C)c1=O [Compound 20a]
Q = Cn1c(=O)c2c(nc(NCCc3ccc(O)c(O)c3)n2CCOc2ccccc2)n(C)c1=O [Compound 11l]
Incoming: # argmax over inhibition at 10 µM for candidates P and Q Answer = label.
Outgoing: P
(P: 44%, Q: 20%)

###

# study.system: human MAO-A (Homo sapiens, UniProt P21397)
# Sequence (P21397 1-527): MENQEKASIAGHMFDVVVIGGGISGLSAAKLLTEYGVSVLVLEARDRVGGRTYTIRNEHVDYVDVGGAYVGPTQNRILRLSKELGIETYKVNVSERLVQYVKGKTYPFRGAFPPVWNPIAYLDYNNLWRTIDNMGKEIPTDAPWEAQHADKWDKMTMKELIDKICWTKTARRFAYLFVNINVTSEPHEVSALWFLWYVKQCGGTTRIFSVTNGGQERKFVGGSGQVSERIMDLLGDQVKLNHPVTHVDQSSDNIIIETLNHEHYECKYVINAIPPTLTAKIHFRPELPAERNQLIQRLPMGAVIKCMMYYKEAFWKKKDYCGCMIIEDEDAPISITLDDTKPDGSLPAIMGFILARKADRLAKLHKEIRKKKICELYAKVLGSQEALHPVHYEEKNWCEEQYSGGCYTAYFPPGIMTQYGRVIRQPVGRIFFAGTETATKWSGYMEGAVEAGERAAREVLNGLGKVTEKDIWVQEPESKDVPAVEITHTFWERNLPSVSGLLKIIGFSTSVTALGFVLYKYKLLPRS
# method.summary: Amplex Red monoamine oxidase assay, MAO-A
# condition.parameters: human recombinant MAO-A; read-out: MAO-A IC50 ± SEM
Measured IC50, listed per entry.

CCCCCn1c(NCCc2ccc(O)c(O)c2)nc2c1c(=O)n(C)c(=O)n2C [Compound 11h]; 0.692 µM

Incoming: I am curious: what IC50 value has been reported for CCCCn1c(=O)c2c(nc3n2CCCN3CCc2ccc(O)c(O)c2)n(CCCC)c1=O [Compound 22] ?
Outgoing: > 1 µM

Incoming: I am curious: what IC50 value has been reported for CCCCn1c(NCCc2ccc(O)c(O)c2)nc2c1c(=O)n(C)c(=O)n2C [Compound 11e] ?
Outgoing: > 1 µM

###

IC50 tested on human PDE10A1 (Homo sapiens, UniProt Q9Y233): recorded values

Guide cases for IC50, answers given:
CCCCn1c(=O)c2c(nc(NCCc3ccc(O)c(O)c3)n2CCC)n(CCCC)c1=O; > 10 µM
Cn1c(=O)c2c(nc3n2CCCN3CCc2ccc(O)c(O)c2)n(C)c1=O [Compound 20a]; > 10 µM

Now let's try a different one.
Incoming: Query the reported IC50 for human PDE10A1 (Homo sapiens, UniProt Q9Y233); item: CCCCCCn1c(NCCc2ccc(O)c(O)c2)nc2c1c(=O)n(C)c(=O)n2C [Compound 11i]
Outgoing: > 10 µM

###

# study.system: human MAO-B (Homo sapiens)
# Sequence (P27338 whole entry): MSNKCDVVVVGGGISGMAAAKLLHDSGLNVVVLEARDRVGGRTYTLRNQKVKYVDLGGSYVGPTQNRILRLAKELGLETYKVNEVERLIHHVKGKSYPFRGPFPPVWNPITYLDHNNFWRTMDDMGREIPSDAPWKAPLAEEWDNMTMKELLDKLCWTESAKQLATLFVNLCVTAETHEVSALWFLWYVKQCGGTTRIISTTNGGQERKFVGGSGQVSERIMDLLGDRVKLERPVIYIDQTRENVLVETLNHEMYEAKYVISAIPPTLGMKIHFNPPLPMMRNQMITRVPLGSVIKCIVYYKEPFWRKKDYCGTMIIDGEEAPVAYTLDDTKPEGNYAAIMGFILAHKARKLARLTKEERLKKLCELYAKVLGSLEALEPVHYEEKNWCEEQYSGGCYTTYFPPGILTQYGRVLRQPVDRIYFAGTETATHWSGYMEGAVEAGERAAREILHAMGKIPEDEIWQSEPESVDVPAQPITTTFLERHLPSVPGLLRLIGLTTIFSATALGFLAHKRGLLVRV
# method.summary: Amplex Red monoamine oxidase assay, MAO-B
# condition.parameters: human recombinant MAO-B; read-out: MAO-B IC50 ± SEM
measured.property: IC50 (nM)

Cn1c(=O)c2c(nc3n2CCCN3CCc2ccc(O)c(O)c2)n(C)c1=O [Compound 20a]; 121
CC(C)n1c(NCCc2ccc(O)c(O)c2)nc2c1c(=O)n(C)c(=O)n2C [Compound 11d]; 126
CCCCn1c(=O)c2c(nc3n2CCCN3CCc2ccc(O)c(O)c2)n(CCCC)c1=O [Compound 22]; 170

###

# study.system: human D2L receptor (Homo sapiens, UniProt P14416)
# Sequence (P14416 whole entry): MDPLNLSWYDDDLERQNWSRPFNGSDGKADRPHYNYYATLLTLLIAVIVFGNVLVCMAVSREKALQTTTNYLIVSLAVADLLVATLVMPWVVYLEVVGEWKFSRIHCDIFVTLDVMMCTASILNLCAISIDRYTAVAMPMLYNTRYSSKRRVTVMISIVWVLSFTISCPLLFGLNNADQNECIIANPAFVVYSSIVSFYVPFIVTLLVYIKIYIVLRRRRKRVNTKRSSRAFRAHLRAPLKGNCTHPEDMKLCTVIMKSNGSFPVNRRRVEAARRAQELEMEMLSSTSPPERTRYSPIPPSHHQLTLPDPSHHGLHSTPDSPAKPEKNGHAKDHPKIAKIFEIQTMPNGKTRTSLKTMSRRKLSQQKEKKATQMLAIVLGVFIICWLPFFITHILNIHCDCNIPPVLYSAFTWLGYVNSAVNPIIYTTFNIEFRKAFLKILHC
# method.summary: Radioligand binding [3H]-raclopride, HEK293 membranes
# condition.parameters: HEK293 cells, human D2; read-out: hD2 [3H]-Raclopride Ki ± SEM
pKi: −log10 of the molar value.
measured.property: pKi

Cn1c(=O)c2c(nc(NCCc3ccc(O)c(O)c3)n2CCOc2ccccc2)n(C)c1=O [Compound 11l]; 5.05
CCCCCn1c(NCCc2ccc(O)c(O)c2)nc2c1c(=O)n(C)c(=O)n2C [Compound 11h]; 5.08
CCCn1c(NCCc2ccc(O)c(O)c2)nc2c1c(=O)n(C)c(=O)n2C [Compound 11c]; 5.03
Cn1c(=O)c2c(nc3n2CCCCN3CCc2ccc(O)c(O)c2)n(C)c1=O [Compound 20b]; 4.97
CCCCn1c(NCCc2ccc(O)c(O)c2)nc2c1c(=O)n(C)c(=O)n2C [Compound 11e]; 4.90

###

IC50 tested on UniProt Q9Y233: recorded values

Guide cases for IC50, answers given:
Cn1c(=O)c2c(nc(NCCc3ccc(O)c(O)c3)n2Cc2ccccc2)n(C)c1=O [Compound 11j]; ≥ 10 µM
CCCCCn1c(NCCc2ccc(O)c(O)c2)nc2c1c(=O)n(C)c(=O)n2C [Compound 11h]; ≥ 10 µM

Incoming: I am curious: what IC50 value has been reported for Cn1c(=O)c2c(nc(NCCc3ccc(O)c(O)c3)n2CCOc2ccccc2)n(C)c1=O [Compound 11l] ?
Outgoing: > 10 µM

Values from paper PMC10377586
